Biological target: human Nav1.5 (Homo sapiens (Human))
Sequence (Q14524 whole entry): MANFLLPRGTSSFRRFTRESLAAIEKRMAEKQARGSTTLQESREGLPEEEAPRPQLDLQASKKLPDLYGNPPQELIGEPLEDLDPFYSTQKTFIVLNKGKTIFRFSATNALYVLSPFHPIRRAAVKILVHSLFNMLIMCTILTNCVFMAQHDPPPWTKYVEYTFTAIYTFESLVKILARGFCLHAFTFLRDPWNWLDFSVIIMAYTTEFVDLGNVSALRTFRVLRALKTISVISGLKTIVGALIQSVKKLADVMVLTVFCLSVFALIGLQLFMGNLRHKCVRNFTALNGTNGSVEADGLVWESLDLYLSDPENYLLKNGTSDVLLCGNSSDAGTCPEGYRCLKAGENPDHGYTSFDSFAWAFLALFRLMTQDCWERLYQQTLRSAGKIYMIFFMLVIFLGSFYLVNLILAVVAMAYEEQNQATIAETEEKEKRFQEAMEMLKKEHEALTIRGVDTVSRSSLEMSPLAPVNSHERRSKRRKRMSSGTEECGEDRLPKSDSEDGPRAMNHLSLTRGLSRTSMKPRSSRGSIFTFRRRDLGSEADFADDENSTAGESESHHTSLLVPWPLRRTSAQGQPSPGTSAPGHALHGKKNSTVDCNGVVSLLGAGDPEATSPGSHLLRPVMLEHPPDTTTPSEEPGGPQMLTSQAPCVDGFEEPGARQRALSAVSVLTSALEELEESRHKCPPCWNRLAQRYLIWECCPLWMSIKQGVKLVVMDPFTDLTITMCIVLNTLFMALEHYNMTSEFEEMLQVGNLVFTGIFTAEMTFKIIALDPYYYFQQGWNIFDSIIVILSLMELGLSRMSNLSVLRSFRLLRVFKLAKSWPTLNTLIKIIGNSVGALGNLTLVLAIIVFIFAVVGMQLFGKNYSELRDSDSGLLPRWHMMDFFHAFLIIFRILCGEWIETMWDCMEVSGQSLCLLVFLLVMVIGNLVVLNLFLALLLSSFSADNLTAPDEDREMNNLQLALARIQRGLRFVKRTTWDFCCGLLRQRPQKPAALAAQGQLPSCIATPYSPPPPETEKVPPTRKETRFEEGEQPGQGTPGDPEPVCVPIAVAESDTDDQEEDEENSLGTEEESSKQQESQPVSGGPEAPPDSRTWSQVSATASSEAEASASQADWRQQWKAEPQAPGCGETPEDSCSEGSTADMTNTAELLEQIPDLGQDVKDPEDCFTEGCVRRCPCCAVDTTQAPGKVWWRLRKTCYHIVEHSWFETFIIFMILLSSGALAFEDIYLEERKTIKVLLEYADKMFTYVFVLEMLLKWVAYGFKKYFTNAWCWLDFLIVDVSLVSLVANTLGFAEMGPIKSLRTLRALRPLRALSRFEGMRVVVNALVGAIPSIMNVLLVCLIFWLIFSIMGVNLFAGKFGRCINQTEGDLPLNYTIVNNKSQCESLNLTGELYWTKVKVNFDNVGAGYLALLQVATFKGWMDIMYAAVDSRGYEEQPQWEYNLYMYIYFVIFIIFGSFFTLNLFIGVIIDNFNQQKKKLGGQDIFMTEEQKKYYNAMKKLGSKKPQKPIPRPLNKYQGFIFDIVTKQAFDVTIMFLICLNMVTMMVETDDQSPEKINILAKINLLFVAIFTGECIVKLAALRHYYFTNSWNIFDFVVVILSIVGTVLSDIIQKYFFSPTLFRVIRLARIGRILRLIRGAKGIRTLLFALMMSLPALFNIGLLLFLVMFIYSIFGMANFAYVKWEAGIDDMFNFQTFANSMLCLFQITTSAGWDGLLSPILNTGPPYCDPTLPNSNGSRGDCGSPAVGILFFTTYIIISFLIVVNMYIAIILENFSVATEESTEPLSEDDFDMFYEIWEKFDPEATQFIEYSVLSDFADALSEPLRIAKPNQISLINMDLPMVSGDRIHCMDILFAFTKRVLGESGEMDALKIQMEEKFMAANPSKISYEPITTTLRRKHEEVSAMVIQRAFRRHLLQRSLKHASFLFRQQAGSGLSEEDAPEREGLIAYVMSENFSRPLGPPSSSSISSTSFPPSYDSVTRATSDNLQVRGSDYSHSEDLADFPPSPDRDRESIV
Experiment: Human Nav1.5 inhibitory activity evaluation (automated patch clamp QPatch16X, HEK293 cells stably expressing human Nav1.5)
Type: cell-based
Conditions: human Nav1.5, automated patch clamp
reported-endpoint: IC50

Worked cases, IC50 given:
molecule | target-or-system | test-result
N#Cc1ccc2c(c1)C(F)[C@@H](NC(=O)c1cc3n(n1)CCC(COCC1CC1)O3)CO2 (single isomer, unassigned) [617 (isomer C)] | human Nav1.5 (Homo sapiens (Human)) | ≥ 3 µM
N#Cc1ccc2c(c1)C[C@@H](NC(=O)c1cc3n(n1)CC(CSCC(F)(F)F)O3)CO2 (single isomer, unassigned) [200 (isomer B)] | human Nav1.5 (Homo sapiens (Human)) | ≥ 3 µM
N#Cc1ccc2c(c1)C[C@@H](NC(=O)c1cc3n(n1)CC(CCCOC(F)(F)F)O3)CO2 (single isomer, unassigned) [247 (isomer B)] | human Nav1.5 (Homo sapiens (Human)) | 1 to 3 µM
O=C(N[C@H]1COc2ccc(CCOC(F)F)cc2C1)c1cc2n(n1)CCC(C(F)F)O2 (some centres unmarked) | human Nav1.5 (Homo sapiens (Human)) | ≥ 3 µM
Cn1cc(-c2ccc3c(c2)C[C@@H](NC(=O)c2cc4n(n2)CC(CCOC(F)F)O4)CO3)cn1 (some centres unmarked) [Example 220] | human Nav1.5 (Homo sapiens (Human)) | 1 to 3 µM
N#Cc1ccc2c(c1)C[C@@H](NC(=O)c1cc3n(n1)CCN(Cc1ccc(F)cc1)C3)CO2 | human Nav1.5 (Homo sapiens (Human)) | ≥ 3 µM
O=C(N[C@H]1COc2ccc(CC(F)F)cc2C1)c1cc2n(n1)CC(CCOC(F)F)O2 (single isomer, unassigned) [219 (isomer B)] | human Nav1.5 (Homo sapiens (Human)) | 1 to 3 µM
O=C(N[C@H]1COc2ccc(Br)cc2C1)c1cc2n(n1)CCC(C(F)(F)F)O2 (some centres unmarked) | human Nav1.5 (Homo sapiens (Human)) | 1 to 3 µM

Reported IC50 for O=C(N[C@H]1COc2ccc(Cl)cc2C1)c1cc2n(n1)CC(CCNCC(F)(F)F)O2 (single isomer, unassigned) [226 (isomer A)] was ≥ 3 µM

The molecule N#Cc1ccc2c(c1)C[C@@H](NC(=O)c1cc3n(n1)CCC(C(F)(F)F)O3)CO2 (some centres unmarked) [Example 373] showed IC50 equal to ≥ 3 µM

O=C(N[C@H]1COc2ccc(C(F)F)cc2C1)c1cc2n(n1)CCN(Cc1ccccn1)C2 yielded IC50 of ≥ 3 µM

Item: O=C(N[C@H]1COc2ccc(COCC(F)(F)F)cc2C1)c1cc2n(n1)CCC(COC(F)F)O2 (single isomer, unassigned) [140 (isomer B)] | IC50: 1 to 3 µM

// O=C(c1cn2c(n1)CCC(C(F)(F)F)C2)N(Cc1ccccc1)C1COc2ccc(Br)cc2C1 (centres unmarked) : IC50 value = 1 to 3 µM

Measured IC50 of O=C(N[C@H]1COc2ccc(Cl)cc2C1)c1cc2n(n1)CCC(CNCC(F)(F)F)O2 (single isomer, unassigned) [152 (isomer A)] : ≥ 3 µM
